Data provenance: PubChem BioAssay AID1895

Molecular target: MEK5 PB1 domain binding to MEKK2 (MAP3K2) mutant PB1, human
Assay: mutant MEKK2 PB1-MEK5 interaction blockers – biochemical, bead multiplex flow cytometry, dose response (AID 1895)
Settings: Bead-based multiplex flow cytometry
Calls of active or inactive are those of the source. The rule behind the calls is not given here.
// classify into active, inactive

CCC(/C=C1\Sc2ccc(OC)cc2N1CCO)=C\c1sc2ccc(OC)cc2[n+]1CCO ... active
C#CCOCCOCCOCCNc1nc(N2CCN(C(=O)[C@H]([C@@H](C)CC)n3cc([C@@H](N)CO)nn3)CC2)nc(N2CCN(C(=O)[C@H](Cc3cc4ccccc4[nH]3)n3cc([C@@H](N)C(C)CC)nn3)CC2)n1 (stereo partly drawn) ... inactive
OCCCCNCc1ccc(OCc2ccc(Cl)cc2Cl)cc1 ... inactive
CCCCCCCCCC[N+](C)(C)CC/C=C1/c2ccccc2Sc2ccc(Cl)cc21 ... inactive
CCCCCCCCCCCCCCCC[n+]1cccc2ccccc21 ... active
O=C(CCCC(=O)N(CC(=O)NC1CCCC1)C1CCCC1)Nc1ccccn1 ... inactive
C#CCOCCOCCOCCNc1nc(N2CCN(C(=O)[C@H](Cc3cc4ccccc4[nH]3)n3cc([C@@H](N)CC(C)C)nn3)CC2)nc(N2CCN(C(=O)[C@H](Cc3cc4ccccc4[nH]3)n3cc([C@@H](N)CC(C)C)nn3)CC2)n1 ... active

Consider the additional compound presented here.
Each compound tested received a call. Report the one for `CN(C)c1ccc(NC(=O)CN2CCC(O)(c3ccccc3)CC2)cc1` .
inactive
